test_target: Estrogen receptor (Homo sapiens)
test_details: qHTS assay to identify small molecule antagonists of the estrogen receptor alpha (ER-alpha) signaling pathway (AID 743069)
measurement_context: HEK293 ER-alpha-UAS-bla, beta-lactamase ratio, antagonist mode; series mostly up to 69.4 µM
The source made the active and inactive calls. Calls come from the whole dose curve; as a rule, active = well fitted curve in the direction sought with a large enough effect in the signal ratio in the repeat runs (not every such curve was filed as active); inconclusive = weak or mixed curves, or effect the other way; inactive = no such curve, though single readings can be large or run the other way; the % refers to the signal ratio.
Respond using exactly one of the listed classes: active, inactive

Some entries whose results are on file:
CN=C(NC)NCc1ccccc1 inactive
Cc1cc(C)c(NC(=O)C[C@H](CC(=O)O)c2cccc3ccccc23)c(C(=O)N2CCC3(CCCC3)CC2)c1 inactive
COC(=O)[C@H]1[C@H]2C[C@@H]3c4[nH]c5ccccc5c4CCN3C[C@H]2C[C@@H](OC(=O)c2cc(OC)c(OC)c(OC)c2)[C@@H]1OC active

Returns: the outcome recorded for `CO[C@@H]1[C@@H](O[C@@H]2O[C@H](C)[C@@H](O[C@H]3C[C@@](C)(O)[C@@H](OC(=O)CC(C)C)[C@H](C)O3)[C@H](N(C)C)[C@H]2O)[C@@H](CC=O)C[C@@H](C)[C@@H](O)/C=C/C=C/C[C@@H](C)OC(=O)C[C@H]1O` in this assay.
inactive
